Data provenance is ChEMBL document CHEMBL1128860.

- SUBJECT OF TEST: Serotonin 3 (5-HT3) receptor
- PROTOCOL TEXT: Compound was tested for its affinity towards 5-hydroxytryptamine 3 receptor
pIC50: −log10 of the molar value.
MEASURED ATTRIBUTE: pIC50

{"LINE NOTATION": "NCCc1c[nH]c2ccc(OCC(=O)N3CCN(c4cccc5ccccc45)CC3)cc12", "ENDPOINT RESULT": "< 6.00"}

====

- SUBJECT OF TEST: 5-hydroxytryptamine receptor 3A (Homo sapiens, UniProt P46098)
- Sequence (P46098 whole entry): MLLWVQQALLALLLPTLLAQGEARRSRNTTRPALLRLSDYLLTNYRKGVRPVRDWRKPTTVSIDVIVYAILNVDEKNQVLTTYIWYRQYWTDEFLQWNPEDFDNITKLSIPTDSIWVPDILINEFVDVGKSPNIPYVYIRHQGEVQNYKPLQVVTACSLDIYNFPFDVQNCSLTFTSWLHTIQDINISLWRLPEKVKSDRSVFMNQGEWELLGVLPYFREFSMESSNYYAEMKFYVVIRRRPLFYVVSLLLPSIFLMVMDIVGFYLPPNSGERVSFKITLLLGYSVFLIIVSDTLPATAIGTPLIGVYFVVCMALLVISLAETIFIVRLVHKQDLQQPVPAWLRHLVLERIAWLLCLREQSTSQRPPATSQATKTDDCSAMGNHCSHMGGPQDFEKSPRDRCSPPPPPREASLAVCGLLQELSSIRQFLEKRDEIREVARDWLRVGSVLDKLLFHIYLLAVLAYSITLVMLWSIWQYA
pIC50: −log10 of the molar value.

{"LINE NOTATION": "Cc1ccccc1N1CCN(C(=O)COc2ccc3[nH]cc(CCN)c3c2)CC1", "pIC50": "< 5.00"}
